Would you kindly list half-life for each of these compounds?
assay: Half life in Beagle dog at 1 mg/kg, iv by LC/MS method; type: ADME, organism-based, Canis lupus familiaris; settings: in vivo
# value in h; strip the unit string

Could you please provide reported half-life for COC(=O)N[C@H](C(=O)N1CCC[C@H]1c1ncc(-c2cc(F)c3c(c2)O[C@@H](c2ccc(C4CC4)s2)n2c-3cc3cc(-c4cnc([C@@H]5CCCN5C(=O)[C@@H](NC(=O)OC)C5C[C@@H](C)O[C@@H](C)C5)[nH]4)ccc32)[nH]1)C(C)C (some centres undefined) ? Thanks!
7.2

Could you please provide reported half-life for COC(=O)N[C@H](C(=O)N1CCC[C@H]1c1ncc(-c2cc(F)c3c(c2)O[C@@H](c2ccc(C4CC4)s2)n2c-3cc3cc(-c4cnc([C@@H]5CCCN5C(=O)[C@@H](NC(=O)OC)C5C[C@@H](C)O[C@H](C)C5)[nH]4)ccc32)[nH]1)C(C)C (some centres undefined) ? Thanks!
11.3

Could you please provide reported half-life for COC(=O)N[C@H](C(=O)N1CCC[C@H]1c1ncc(-c2cc(F)c3c(c2)O[C@@H](c2ccc(C4CC4)s2)n2c-3cc3cc(-c4cnc([C@@H]5CCCN5C(=O)[C@@H](NC(=O)OC)[C@@H]5CCOC(C)(C)C5)[nH]4)ccc32)[nH]1)C(C)C ? Thanks!
5.8

Could you please provide reported half-life for COC(=O)N[C@H](C(=O)N1CCC[C@H]1c1ncc(-c2cc(F)c3c(c2)O[C@@H](c2ccc(C4CC4)s2)n2c-3cc3cc(-c4cnc([C@@H]5CCCN5C(=O)[C@@H](NC(=O)OC)C5CCOCC5)[nH]4)ccc32)[nH]1)C(C)C ? Thanks!
4.2
